Every entry's value here was drawn from the supplement of paper PMC4466140.

biological target: SpCyk3; assay: SPOT peptide array binding signal intensity (averaged, normalized) (arbitrary units (background-subtracted, floor 0; scale differs between SH3 domains)); higher = stronger binding of the SH3 domain to the peptide
SPOT peptide array binding signal intensity vs 2: at or above is True, below is False.

Please check the record ALKQKKIPPPFKPHL and state if its SPOT peptide array binding signal intensity is at or above 2.
False

# bool: SPOT peptide array binding signal intensity of MTKTPETSPPKRPMG >= 2
False

Confirm if SPOT peptide array binding signal intensity reported for the binder GTIARPLFLVVLFFI is 2 or above.
True

Answer whether SPOT peptide array binding signal intensity of RKQRSIPLSPIVPES is greater than or equal to 2.
False

Tell me whether SPOT peptide array binding signal intensity is at least 2 here: SSAAPPPPPRRATPE
True

Decide: SPOT peptide array binding signal intensity of HRRRRVFSIPSLKSI >= 2?
True

Test whether the binder PLRRTVMSLPGNHDI records SPOT peptide array binding signal intensity of 2 or higher.
False
